# Test system: CAL-148
# assay-name: normalised viability (% of control), CellTiter-Blue; higher = more viable cells (about 100 = DMSO control)
# applied-conditions: 10 nM; incubation time: 72 h
parameter-measured: normalised viability (%)
State just the number; it will be interpreted in %.

Sample answers from the record:
CN1CCN(CCOc2cc(OC3CCOCC3)c3c(Nc4c(Cl)ccc5c4OCO5)ncnc3c2)CC1 [Saracatinib] ... 80.7
CN(C)CCN1C(=O)c2cccc3cc(N)cc(c23)C1=O [Amonafide] ... 85.2
CCCCCCCCc1ccc(CCC(N)(CO)CO)cc1 [Fingolimod] ... 87.3

Now take the following molecule into account.
Q: Record lookup: for CAL-148, what normalised viability belongs to Cn1cncc1[C@@](N)(c1ccc(Cl)cc1)c1ccc2c(c1)c(-c1cccc(Cl)c1)cc(=O)n2C [Tipifarnib] ?
Result: 83.2
